MEASURED_TARGET: CB1 receptor (Homo sapiens)
Construct: expressed in transfected cells
Sequence (P21554 whole entry): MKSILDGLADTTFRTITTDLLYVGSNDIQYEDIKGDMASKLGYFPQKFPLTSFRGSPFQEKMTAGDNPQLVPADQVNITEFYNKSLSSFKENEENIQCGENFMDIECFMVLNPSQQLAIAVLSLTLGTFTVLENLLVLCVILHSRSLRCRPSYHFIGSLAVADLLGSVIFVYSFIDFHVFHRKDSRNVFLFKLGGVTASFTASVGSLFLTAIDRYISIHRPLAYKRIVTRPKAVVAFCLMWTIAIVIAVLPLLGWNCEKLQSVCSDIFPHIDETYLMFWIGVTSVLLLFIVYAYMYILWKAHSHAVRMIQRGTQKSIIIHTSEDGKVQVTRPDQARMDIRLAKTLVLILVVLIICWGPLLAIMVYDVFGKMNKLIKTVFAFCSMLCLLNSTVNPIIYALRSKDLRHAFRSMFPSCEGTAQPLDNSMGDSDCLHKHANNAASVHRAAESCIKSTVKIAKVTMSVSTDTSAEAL
MEASUREMENT_PROTOCOL: [35S]-GTPγS binding assay, inhibition of CP55940 (EC80) stimulated activity in membranes of cells stably transfected with the CB1 gene
Type: biochemical
MEASURED_ENDPOINT: IC50
Your reply should be a number followed by the unit it is expressed in.

get_value(item= CCCCCc1ccc(-c2c(C)c3c(n2-c2ccc(Cl)cc2Cl)CCN(N2CCCCC2)C3=O)cc1 , readout=IC50) returns 2.1 nM

###

MEASURED_TARGET: CB1 receptor (Homo sapiens)
Construct: expressed in transfected cells
MEASUREMENT_PROTOCOL: [35S]-GTPγS binding assay, inhibition of CP55940 (EC80) stimulated activity in membranes of cells stably transfected with the CB1 gene
Type: biochemical
CONDITION_SUMMARY: half maximal inhibition of GTPγS binding, EC80 concentration of agonist CP55940, 30° C. 45 min; read-out: IC50
hey, just use YES if measured IC50 is less than 5 nM, otherwise NO

-- ask Check if IC50 falls below 5 nM for Cc1c2c(n(-c3ccc(Cl)cc3Cl)c1-c1ccc(CCCCC(F)(F)F)cc1)CCN(N1CCCCC1)C2=O .
-- reply YES

-- ask Check if IC50 falls below 5 nM for Cc1c2c(n(-c3ccc(Cl)cc3Cl)c1-c1ccc(CN3CC(F)(F)C3)cc1)CCN(N1CCCCC1)C2=O .
-- reply NO

-- ask Check if IC50 falls below 5 nM for CCC/C=C/c1ccc(-c2c(C)c3c(n2-c2ccc(Cl)cc2Cl)CCN(N2CCCCC2)C3=O)cc1 .
-- reply YES
